Compiled pIC50 measurements on Substance-K receptor (Homo sapiens, UniProt P21452) taken from the literature.
pIC50: −log10 of the molar value.
recorded.endpoint: pIC50

compound	recorded.endpoint	value
CS(=O)(=O)N1CCN(C2CN(CC[C@]3(c4ccc(Cl)c(Cl)c4)CCC(=O)N(CC4CC4)C3)C2)CC1	pIC50	8.10
O=C(c1ccccc1)N1CCCC(CCCN2CCC(n3c(=O)[nH]c4ccccc43)CC2)(c2ccc(Cl)c(Cl)c2)C1 (configuration not stated)	pIC50	6.46
NS(=O)(=O)N1CCN(C2CN(CC[C@]3(c4ccc(Cl)c(Cl)c4)CCC(=O)N(CC4CC4)C3)C2)CC1	pIC50	8.40
O=C(c1ccccc1)N1CCCC(CCCN2CCC3(CC2)CN(c2ccccc2)NC3=O)(c2ccc(Cl)c(Cl)c2)C1 (configuration not stated)	pIC50	7.30
CC[C@@H]1O[C@](/C=C/C2CC2)(C(F)(F)F)c2c(ccc(F)c2F)NC1=O	pIC50	4.55
CC[C@@H](C)Nc1nc(C)nc2c(-c3ccc(OC)nc3C)c(C)nn12	pIC50	5.31
O=C1CCN(C2CN(CC[C@]3(c4ccc(Cl)c(Cl)c4)CCC(=O)N(CC4CCC(F)(F)CC4)C3)C2)CC1	pIC50	8.50
[O-][S+](C[C@]1(O)CCN2CCc3c([nH]c4ccc(F)cc34)[C@H]2C1)c1ccccc1 (mixture of isomers)	pIC50	4.60
CN(C[C@@H](CCN1CCC(NC(=O)c2ccccc2)(c2ccccc2)CC1)c1ccc(Cl)c(Cl)c1)C(=O)c1ccccc1 (racemic)	pIC50	7.84
C[C@@H](O[C@@H]1CN(C2=CC(=O)CC2)C[C@H]1c1ccc(F)cc1)c1cc(C(F)(F)F)cc(C(F)(F)F)c1	pIC50	5.76
CN(C)C(=O)NC1(c2ccccc2)CCN(CC[C@@]2(c3ccc(F)c(F)c3)CN(C(=O)c3ccccc3)CCO2)CC1 (racemic)	pIC50	8.22

---

Compiled log10 of IC50 measurements on the protein given by its sequence taken from the literature.
Target chain: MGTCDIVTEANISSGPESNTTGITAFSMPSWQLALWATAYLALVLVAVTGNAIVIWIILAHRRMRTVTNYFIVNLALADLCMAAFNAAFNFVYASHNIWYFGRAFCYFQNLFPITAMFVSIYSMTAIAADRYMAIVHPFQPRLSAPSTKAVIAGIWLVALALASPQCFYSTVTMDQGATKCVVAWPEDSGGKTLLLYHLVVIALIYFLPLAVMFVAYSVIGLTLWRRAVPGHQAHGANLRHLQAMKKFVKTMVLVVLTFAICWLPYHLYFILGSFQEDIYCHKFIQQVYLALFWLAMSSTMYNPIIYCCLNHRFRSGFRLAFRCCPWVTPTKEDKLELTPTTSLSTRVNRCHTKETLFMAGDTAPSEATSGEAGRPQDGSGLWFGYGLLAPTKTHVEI
recorded.endpoint: log10 of IC50 (log10 of the value in nM)

molecule	value
NC1CCN(C2CN(CC[C@]3(c4ccc(Cl)c(Cl)c4)CCC(=O)N(CC4CC4)C3)C2)CC1	0.80
Cc1ccccc1[C@H]1[C@@H]2CN(C3=NC(=O)CO3)C[C@H]2CC[C@@H]1O[C@H](CO)c1cc(C(F)(F)F)cc(C(F)(F)F)c1	3.86
O=C1CCC(CCCN2CCC(n3c(=O)[nH]c4ccccc43)CC2)(c2ccc(Cl)c(Cl)c2)CN1Cc1ccccc1 (centres undefined)	0.81
O=C1CC[C@](CCN2CC(N3CCC(F)CC3)C2)(c2ccc(Cl)c(Cl)c2)CN1CCC1CC1	0.40
[O-][S+](c1ccccc1)C(c1ccccc1)C1(O)CCN(CCc2c[nH]c3ccc(F)cc23)CC1 (racemic)	2.05
